- procedure_summary: Nuclear factor erythroid 2-related factor 2/antioxidant responsive element (Nrf2/ARE) small molecule agonists: luciferase reporter gene qHTS assay in human keratinocytes (AID 1919969); also: nearly all actives have a fitted effect of over 35% in size
- measurement_parameters: KeratinoSens HaCaT ARE-luciferase, luminescence, 24 h; series mostly up to 92.4 µM
Results filed as inconclusive are left out. The source made the active and inactive calls. Calls follow the shape of the full dose curve.
Outcomes: active, inactive

[[record]]
compound = "CCCCCCCCCC(=O)OCC"
label_class = "inactive"

[[record]]
compound = "CCNS(=O)(=O)c1ccc(C)cc1"
label_class = "inactive"

[[record]]
compound = "CC(=O)CC(=O)OC(C)(C)C"
label_class = "inactive"

[[record]]
compound = "CCCCCCCCCCCCC"
label_class = "inactive"

[[record]]
compound = "CCC(=O)O[C@]1(C(=O)CCl)[C@@H](C)C[C@H]2[C@@H]3CCC4=CC(=O)C=C[C@]4(C)[C@@]3(F)[C@@H](O)C[C@@]21C"
label_class = "inactive"

[[record]]
compound = "CCOC(=O)C1=NOC(c2ccccc2)(c2ccccc2)C1"
label_class = "inactive"

[[record]]
compound = "CCOC(=O)C(C)O (centres undefined)"
label_class = "inactive"

[[record]]
compound = "O=C(O)c1cc(O)c2ccccc2c1O"
label_class = "active"

[[record]]
compound = "Clc1ccc2n[nH]nc2c1"
label_class = "inactive"

[[record]]
compound = "Cc1cccc(Oc2ccccc2)c1"
label_class = "inactive"

[[record]]
compound = "CC(C)(C)N"
label_class = "inactive"

[[record]]
compound = "COc1cccc(O)c1"
label_class = "inactive"

[[record]]
compound = "FC(F)(F)c1ccc(Cl)cc1Cl"
label_class = "inactive"

[[record]]
compound = "O=C(O)c1cccc(N(Cc2cccnc2)c2ccc(OC(F)F)c(OC(F)F)c2)c1"
label_class = "inactive"


====

- procedure_summary: Nuclear factor erythroid 2-related factor 2/antioxidant responsive element (Nrf2/ARE) small molecule agonists: luciferase reporter gene qHTS assay in human keratinocytes (AID 1919969); also: nearly all actives have a fitted effect of over 35% in size
- measurement_parameters: KeratinoSens HaCaT ARE-luciferase, luminescence, 24 h; series mostly up to 92.4 µM
Records with an inconclusive call do not appear. Activity calls are given as the source filed them. The call rests on the fitted dose curve.
Possible outcomes: active, inactive

[[record]]
compound = "COc1ccc(CN2CCN(C(c3ccc(F)cc3)c3ccc(F)cc3)CC2)c(OC)c1OC"
label_class = "inactive"

[[record]]
compound = "O[C@@H](CNC[C@H](O)[C@H]1CCc2cc(F)ccc2O1)[C@@H]1CCc2cc(F)ccc2O1"
label_class = "inactive"

[[record]]
compound = "C=CC(C)C#N (configuration not stated)"
label_class = "inactive"

[[record]]
compound = "O=C(OC1C[C@H]2CC[C@@H](C1)[N+]21CCCC1)C(O)(c1ccccc1)c1ccccc1 (some centres not stated)"
label_class = "inactive"

[[record]]
compound = "CC(=O)N/N=C/c1ccc([N+](=O)[O-])o1"
label_class = "active"

[[record]]
compound = "CO[Si](CCCNc1ccccc1)(OC)OC"
label_class = "inactive"

[[record]]
compound = "Nc1cc(C(=O)O)c(O)c(S(=O)(=O)O)c1"
label_class = "inactive"

[[record]]
compound = "CCc1cccc(CC)c1"
label_class = "inactive"

[[record]]
compound = "CCC(C=O)CC"
label_class = "inactive"

[[record]]
compound = "O=c1[nH]c(=O)n([C@H]2O[C@H](CO)[C@@H](O)[C@@H]2O)cc1/C=C\\Br"
label_class = "inactive"

[[record]]
compound = "O=c1[nH]cnc2nc[nH]c12"
label_class = "inactive"

[[record]]
compound = "Nc1ccc(Oc2cccc(Oc3ccc(N)cc3)c2)cc1"
label_class = "inactive"

